- Test system: MCF7
- TEST_NAME: NCI tumour cell line growth inhibition, 48 h
The source made the active and inactive calls. Rule as the data show it: active = GI50 up to about 1.1 µM and inactive = higher.
Outcome codes: active, inactive

COMPOUND	GROUP
OC(c1ccccc1)c1c(-c2ccccc2)[nH]c(-c2ccccc2)c1C(O)c1ccccc1 (centres undefined)	inactive
COc1ccc(-c2c(CN3CCOCC3)sc3nc4ccccc4n23)cc1	inactive
O=C(O)C1(Cc2ccc3c(c2)CCC3)Cc2ccccc2C1=O (centres undefined)	inactive
CC1(C)N=C(N)N=C(N)N1c1ccc(OCCCOc2ccccc2)c(Cl)c1	active
CSC1=C(C)C(/C=N/Nc2ccc([N+](=O)[O-])cc2)=C(C)N(c2ccccc2)S1(=O)=O	inactive
Cc1cc(=O)[nH]c(-n2[nH]c(C)c(CCO)c2=O)n1	inactive
CC1=CC(=O)CC(C)(C)C1(O)/C=C/C(C)=C/C(=O)O (centres undefined)	inactive
CC(C)C1CC(CO)(CNc2nc(N)nc(Cl)c2C=O)C1 (centres undefined)	inactive
CC(=O)O[C@H]1CC[C@@]2(C)C(=CC[C@@H]3[C@@H]2CC[C@]2(C)C(=N/O)/C(=C\c4ccccc4)C[C@@H]32)C1	inactive
Cc1cc(C2(c3cc(C)c(O)c(C(=O)O)c3)OS(=O)(=O)c3ccccc32)cc(C(=O)O)c1O	inactive
OCC(CN1CCCCC1)(CN1CCCCC1)CN1CCCCC1	inactive
Cc1ccc(S(=O)(=O)N2CCN3CCN(CCN(C)CCN4CCN(CC4)CCN(S(=O)(=O)c4ccc(C)cc4)CCN(S(=O)(=O)c4ccc(C)cc4)CCN(S(=O)(=O)c4ccc(C)cc4)CCN(S(=O)(=O)c4ccc(C)cc4)CCN4CCN(CCN(C)CCN5CCN(CC5)CCN(S(=O)(=O)c5ccc(C)cc5)CCN(S(=O)(=O)c5ccc(C)cc5)CCN(S(=O)(=O)c5ccc(C)cc5)CC2)CC4)CC3)cc1	inactive
CC(C)(C)c1cc(C2=NNC(c3ccccc3)C2)cc(C(C)(C)C)c1O (centres undefined)	inactive
N#CC1CCN2N=C(c3ccccc3)SC12c1ccccc1 (centres undefined)	inactive
CCCC[N+](CCCC)(CCCC)CCCC.O=S(=O)([O-])ON=C1c2ccccc2-c2ccccc21	inactive
C=C1C(=O)OC2C1CC1OC2C(C)CCC/C(C)=C\CCC1(C)O (centres undefined)	inactive
O=C(c1cc2ccccc2[nH]1)N1C2CCC1CN(CCOC(c1ccc(F)cc1)c1ccc(F)cc1)CC2 (centres undefined)	inactive
COc1ccc(C(=O)/C(Br)=C/C(=O)O)cc1	inactive
COc1ccc(COCC[C@H](C)OC2OC(CO)C(O)C(O)C2O)cc1 (some centres undefined)	inactive
COc1ccc(/C=C2\CCC(CNc3ccc(S(N)(=O)=O)cc3)C2=O)cc1 (centres undefined)	inactive
Clc1ccc(Cl)c(Nc2ccnc(SCc3ccccc3)n2)c1	inactive
COc1ccc(/C=C/C(=O)CC(=O)/C=C/c2ccc(OC)cc2)cc1	inactive
CCOC(=O)Oc1ccc(C(CNC(C)C)OC(=O)OCC)cc1OC(=O)OCC (centres undefined)	inactive
O=C(O)c1ccc(P(=O)(O)c2ccc(C(=O)O)cc2Br)c(Br)c1	inactive
O=C1CCc2cc(Br)ccc2O1	inactive
CC(C)C1CN1CC(O)Cn1ccnc1[N+](=O)[O-] (centres undefined)	inactive
NC(=S)N/N=C1\c2ccccc2CCC1CCC1(O)CCc2ccccc2C1=O (centres undefined)	inactive
OC(/C(=N/c1ccccc1)c1ccccc1)c1ccccc1 (centres undefined)	inactive
C[S+](C)([O-])=Nn1c(=O)n2n(c1=O)[C@H]1CC[C@@H]2C1	inactive
C=C1C(=O)OC2C1CC(OC(C)=O)/C(C)=C/CCC1(C)OC21 (centres undefined)	inactive
COc1cc(OC)c2c(=O)c(OC)c(-c3ccc4c(c3)OCO4)oc2c1OC	inactive
CC(C)C1SCc2nc3ccccc3n21 (centres undefined)	inactive
Cc1nnc(N2C(=O)C(=Cc3ccc(Cl)cc3)N=C2c2ccc(Cl)cc2)nc1/C=C\c1ccc(N(C)C)cc1	inactive
O=S(=O)(Nc1nc2ccccc2nc1N1CCCCCC1)c1ccccc1	inactive
COc1cc2c(cc1OC)C1c3ccccc3CCN1CCC2.[O-][Cl+3]([O-])([O-])O (centres undefined)	inactive
CCCSc1ccc2[nH]c(/N=C/c3ccco3)cc2c1	inactive
COc1nc2ccc(CNc3ccc(C(=O)O)cc3)cc2nc1OC	inactive
Cc1sc2nc3n(c(=O)c2c1C)N=C(c1ccc(Cl)cc1)CS3	inactive
COc1cccc(C(=O)N[C@@H]2[C@H](O)[C@@H](CO)O[C@H]2n2cnc3c(N)ncnc32)c1	inactive
